assay: ICB984 medulloblastoma cell growth inhibition, synergistic combos for chromothripsis tumors, cisplatin or BGB combos (AID 1671451); details: ICB984 medulloblastoma cells, drug combinations, BGB IC40 combo, at 0.05 µM, stronger effect = higher value;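 further: cells exposed for 96 hours before readout; 0% = vehicle DMSO and 100% = killing by high DMSO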
Label rule, in plain words: inhibition of -20% and up is Fulfilled, under -20% is Not fulfilled.

[ask] // inclusive: inhibition at least -20%? input: `CCOC(=O)Nc1ccc(NCc2ccc(F)cc2)nc1N`
[reply] Not fulfilled

[ask] // inclusive: inhibition at least -20%? input: COC1C(OC(N)=O)C(O)C(Oc2ccc3c(O)c(NC(=O)c4ccc(O)c(CC=C(C)C)c4)c(=O)oc3c2C)OC1(C)C (stereo not given)
[reply] Not fulfilled

[ask] // inclusive: inhibition at least -20%? input: `CN1CCN(c2c(F)cc3c(=O)c(C(=O)O)cn(CCF)c3c2F)CC1`
[reply] Fulfilled

[ask] // inclusive: inhibition at least -20%? input: CC1(C(=O)O)CCC2(C)CCC3(C)C(=CC(=O)C4C5(C)CCC(OC(=O)CCC(=O)O)C(C)(C)C5CCC43C)C2C1 (stereo not given)
[reply] Fulfilled

[ask] // inclusive: inhibition at least -20%? input: `Nc1ccc2cc3ccc(N)cc3nc2c1`
[reply] Fulfilled

[ask] // inclusive: inhibition at least -20%? input: CN(N=O)C(=O)NC1C(O)OC(CO)C(O)C1O (stereo not given)
[reply] Not fulfilled

[ask] // inclusive: inhibition at least -20%? input: `N=C(N=C(N)N)N1CCOCC1`
[reply] Fulfilled

[ask] // inclusive: inhibition at least -20%? input: `O=c1cc[nH]c(=O)[nH]1`
[reply] Not fulfilled

[ask] // inclusive: inhibition at least -20%? input: `CN1CCN(c2c(F)cc3c(=O)c(C(=O)O)cn4c3c2OCN4C)CC1`
[reply] Fulfilled

---

What inhibition was measured for each of the following?
assay: HDN33 neuroblastoma growth inhibition, cell-based, chromothripsis tumors, cisplatin or BGB combos (AID 1671450); conditions: HDN33 neuroblastoma cells, measured here: with cisplatin IC20 combination, at 0.5 µM, stronger effect = higher value;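 further: cells exposed to compound for four days; 0% = vehicle DMSO and 100% = cell killing by high DMSO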
State just the number; it will be interpreted in %.

[ask] Using known records, supply inhibition for `O=c1[nH]c(=O)n([C@H]2C[C@H](O)[C@@H](CO)O2)cc1Br`
[reply] 4.43

[ask] Using known records, supply inhibition for COC1C(OC(N)=O)C(O)C(Oc2ccc3c(O)c(NC(=O)c4ccc(O)c(CC=C(C)C)c4)c(=O)oc3c2C)OC1(C)C (stereo unspecified)
[reply] 2.19

[ask] Using known records, supply inhibition for `CN1CCN(c2c(F)cc3c(=O)c(C(=O)O)cn4c3c2OCN4C)CC1`
[reply] -12.1

[ask] Using known records, supply inhibition for `CN1CCN(c2c(F)cc3c(=O)c(C(=O)O)cn(CCF)c3c2F)CC1`
[reply] 22.9

[ask] Using known records, supply inhibition for `CCn1nc(C(=O)O)c(=O)c2cc3c(cc21)OCO3`
[reply] -1.32

[ask] Using known records, supply inhibition for CC1(C(=O)O)CCC2(C)CCC3(C)C(=CC(=O)C4C5(C)CCC(OC(=O)CCC(=O)O)C(C)(C)C5CCC43C)C2C1 (stereo unspecified)
[reply] -3.76

[ask] Using known records, supply inhibition for `C[C@@H](CN1CC(=O)NC(=O)C1)N1CC(=O)NC(=O)C1`
[reply] -36.9

[ask] Using known records, supply inhibition for `N=C(N=C(N)N)N1CCOCC1`
[reply] -1.22

[ask] Using known records, supply inhibition for `Nc1ncn([C@H]2C[C@H](O)[C@@H](CO)O2)c(=O)n1`
[reply] 11.6

[ask] Using known records, supply inhibition for `CN1C[C@@H]2C[C@H]1CN2c1cc2c(cc1F)c(=O)c(C(=O)O)cn2C1CC1`
[reply] -48.5

[ask] Using known records, supply inhibition for CN(N=O)C(=O)NC1C(O)OC(CO)C(O)C1O (stereo unspecified)
[reply] -13.6
